target: Serine/threonine-protein kinase Sgk3 (Homo sapiens) (UniProt Q96BR1); conditions: at 0.1 µM;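 also: reported percentages are averaged inhibition values against SGK3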
Sequence (Q96BR1 whole entry): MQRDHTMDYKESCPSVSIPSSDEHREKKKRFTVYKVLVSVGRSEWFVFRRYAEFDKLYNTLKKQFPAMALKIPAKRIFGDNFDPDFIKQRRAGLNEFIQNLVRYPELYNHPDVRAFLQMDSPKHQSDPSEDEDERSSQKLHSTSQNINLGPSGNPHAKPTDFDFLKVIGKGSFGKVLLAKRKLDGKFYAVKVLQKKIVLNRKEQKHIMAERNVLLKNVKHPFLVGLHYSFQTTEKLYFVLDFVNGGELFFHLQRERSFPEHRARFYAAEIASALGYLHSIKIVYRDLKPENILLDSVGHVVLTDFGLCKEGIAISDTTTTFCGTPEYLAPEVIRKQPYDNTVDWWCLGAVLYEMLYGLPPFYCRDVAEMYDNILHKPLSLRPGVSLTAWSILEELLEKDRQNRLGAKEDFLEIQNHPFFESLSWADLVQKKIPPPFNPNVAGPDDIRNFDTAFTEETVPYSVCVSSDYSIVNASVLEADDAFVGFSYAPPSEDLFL
observable: inhibition (%)

1. CCn1c(-c2nonc2N)nc2c(C#CC(C)(C)O)ncc(OCC3CCNCC3)c21 ... 21.6
2. NC(=O)c1sc(-n2cnc3cc(C(F)(F)F)ccc32)cc1OCc1ccccc1Br ... -0.31
3. COc1cccc(-n2ncc3c(N/N=C/c4ccncc4)ncnc32)c1 ... 5.19
4. COc1cc2c(cc1Nc1nc(Nc3ccsc3C(N)=O)c3cc[nH]c3n1)N(C(=O)CN(C)C)CCC2 ... -0.08
5. NS(=O)(=O)c1ccc(-c2ccc3c(NC(=O)C4CC4)n[nH]c3c2)cc1 ... -0.5

Hey, just so you know, these numbers are from ChEMBL document CHEMBL1961873.
